- TESTED_TARGET: 3-hydroxy-3-methylglutaryl-coenzyme A reductase (Homo sapiens) (UniProt P04035)
- Sequence (P04035 whole entry): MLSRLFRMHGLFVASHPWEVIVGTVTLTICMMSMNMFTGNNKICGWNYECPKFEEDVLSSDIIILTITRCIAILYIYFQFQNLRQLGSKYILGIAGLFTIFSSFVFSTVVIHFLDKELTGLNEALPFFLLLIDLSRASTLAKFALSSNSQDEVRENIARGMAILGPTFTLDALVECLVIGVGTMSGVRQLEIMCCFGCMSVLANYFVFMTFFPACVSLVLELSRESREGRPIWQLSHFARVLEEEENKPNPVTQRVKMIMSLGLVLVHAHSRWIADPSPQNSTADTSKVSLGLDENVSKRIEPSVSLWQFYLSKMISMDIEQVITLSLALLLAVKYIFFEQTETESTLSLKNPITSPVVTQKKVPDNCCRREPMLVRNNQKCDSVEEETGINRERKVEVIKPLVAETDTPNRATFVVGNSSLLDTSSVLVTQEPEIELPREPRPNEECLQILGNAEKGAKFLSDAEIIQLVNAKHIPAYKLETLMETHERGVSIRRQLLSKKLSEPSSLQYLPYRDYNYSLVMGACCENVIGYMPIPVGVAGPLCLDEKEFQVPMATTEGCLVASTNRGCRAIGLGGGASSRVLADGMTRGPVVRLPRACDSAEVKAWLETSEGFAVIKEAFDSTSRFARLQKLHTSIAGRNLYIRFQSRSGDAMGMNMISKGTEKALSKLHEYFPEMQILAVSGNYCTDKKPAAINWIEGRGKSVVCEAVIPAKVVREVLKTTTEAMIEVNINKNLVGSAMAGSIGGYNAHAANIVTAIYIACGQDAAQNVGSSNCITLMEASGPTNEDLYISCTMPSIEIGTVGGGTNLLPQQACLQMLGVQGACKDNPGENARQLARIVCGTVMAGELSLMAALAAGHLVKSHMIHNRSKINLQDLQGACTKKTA
- PROTOCOL: Inhibition of HMG-CoA reductase compared to mevinolin.
- Format: functional
Reported Relative potency is given for each of the following compounds.
PROPERTY_LABEL: Relative potency

{"columns": ["COMPOUND", "TESTED_TARGET", "MEASURED"],
 "data": [
  ["CCC(C)(C)OC(=O)C(c1cc(C)cc(C)c1OCC(O)C[C@@H](O)CC(=O)O)C1CCCCC1 (stereo in doubt; 11s)", "3-hydroxy-3-methylglutaryl-coenzyme A reductase (Homo sapiens) (UniProt P04035)", 3],
  ["CC(C)c1cc(-c2ccc(F)cc2)cc(-c2ccc(F)cc2)c1OCC(O)C[C@@H](O)CC(=O)[O-].[Na+] (stereo partly specified)", "3-hydroxy-3-methylglutaryl-coenzyme A reductase (Homo sapiens) (UniProt P04035)", 90],
  ["Cc1c(OCC(O)C[C@@H](O)CC(=O)O)c(-c2ccc(F)cc2)nc2ccccc12 (stereo partly specified)", "3-hydroxy-3-methylglutaryl-coenzyme A reductase (Homo sapiens) (UniProt P04035)", "< 1"],
  ["CCC(C)(C)C(=O)NC(c1cc(C)cc(C)c1OCC(O)C[C@@H](O)CC(=O)O)C1CCCCC1 (stereo in doubt; 11w)", "3-hydroxy-3-methylglutaryl-coenzyme A reductase (Homo sapiens) (UniProt P04035)", "< 1"],
  ["CC(C)c1cc(C(C)(C)C)cc(-c2ccc(F)cc2)c1OCC(O)C[C@@H](O)CC(=O)[O-].[Na+] (stereo partly specified)", "3-hydroxy-3-methylglutaryl-coenzyme A reductase (Homo sapiens) (UniProt P04035)", "< 10"],
  ["Cc1cc(C)c(OCC2C[C@@H](O)CC(=O)O2)c(C(Cl)C2CCCCC2)c1 (stereo partly specified)", "3-hydroxy-3-methylglutaryl-coenzyme A reductase (Homo sapiens) (UniProt P04035)", "< 1"]
]}

----------
- TESTED_TARGET: 3-hydroxy-3-methylglutaryl-coenzyme A reductase (Rattus norvegicus, UniProt P51639)
- Sequence (P51639 whole entry): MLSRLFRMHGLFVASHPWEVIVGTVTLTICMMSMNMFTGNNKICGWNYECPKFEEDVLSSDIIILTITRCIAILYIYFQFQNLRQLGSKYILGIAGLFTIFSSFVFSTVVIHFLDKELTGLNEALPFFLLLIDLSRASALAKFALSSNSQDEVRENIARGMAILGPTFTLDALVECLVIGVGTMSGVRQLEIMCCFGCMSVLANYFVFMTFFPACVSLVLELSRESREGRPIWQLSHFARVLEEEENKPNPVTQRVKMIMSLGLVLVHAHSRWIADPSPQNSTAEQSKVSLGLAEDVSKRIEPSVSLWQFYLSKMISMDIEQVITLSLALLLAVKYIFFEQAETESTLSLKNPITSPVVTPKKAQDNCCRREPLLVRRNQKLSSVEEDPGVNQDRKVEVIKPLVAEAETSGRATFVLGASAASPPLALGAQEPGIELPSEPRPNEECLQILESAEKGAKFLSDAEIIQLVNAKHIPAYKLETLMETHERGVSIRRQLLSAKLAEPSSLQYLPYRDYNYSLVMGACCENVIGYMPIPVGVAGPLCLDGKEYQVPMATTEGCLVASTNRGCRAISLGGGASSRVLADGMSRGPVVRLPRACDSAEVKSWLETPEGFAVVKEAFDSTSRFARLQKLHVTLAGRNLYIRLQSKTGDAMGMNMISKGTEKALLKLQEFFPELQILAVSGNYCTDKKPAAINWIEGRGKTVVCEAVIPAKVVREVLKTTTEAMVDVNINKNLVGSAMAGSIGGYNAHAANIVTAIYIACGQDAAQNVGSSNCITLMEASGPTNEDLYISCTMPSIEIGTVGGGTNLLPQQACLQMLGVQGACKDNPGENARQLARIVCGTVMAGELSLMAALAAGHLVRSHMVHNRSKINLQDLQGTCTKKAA
- PROTOCOL: In vitro inhibition of HMG-CoA reductase in solubilized rat liver.
pIC50: −log10 of the molar value.
Would you mind classing the entries by pIC50? Ranges: band A: < 7; band B: ≥ 7 and < 8; band C: ≥ 8

{"columns": ["MOLECULE", "ASSIGNED_CLASS"],
 "data": [
  ["CC(C)c1cc(-c2ccc(F)cc2)c(OCC(O)C[C@@H](O)CC(=O)[O-])c(C(C)C)c1.[Na+] (some centres undefined)", "band C"],
  ["CCC(C)(C)OC(=O)C(c1cc(C)cc(C)c1OCC(O)C[C@@H](O)CC(=O)O)C1CCCCC1 (stereo in doubt; 11r)", "band B"],
  ["CCC(C)(C)C(=O)NC(c1cc(C)cc(C)c1OCC(O)C[C@@H](O)CC(=O)O)C1CCCCC1 (stereo in doubt; 11w)", "band A"],
  ["O=C(O)C[C@H](O)CC(O)COc1c(Cl)cc(Cl)cc1-c1ccccc1 (some centres undefined)", "band A"]
]}

----------
- TESTED_TARGET: 3-hydroxy-3-methylglutaryl-coenzyme A reductase (Rattus norvegicus) (UniProt P51639)
- Sequence (P51639 whole entry): as the sequence (P51639 whole entry) above
- PROTOCOL: Inhibition of HMG-CoA reductase compared to mevinolin.
Reported Relative potency is given for each of the following compounds.

{"columns": ["COMPOUND", "VALUE_RELATION_SIGN", "Relative potency"],
 "data": [
  ["CC(C)c1cc(-c2ccc(F)cc2)cc(-c2ccc(F)cc2)c1OCC(O)C[C@@H](O)CC(=O)[O-].[Na+] (some centres not stated)", "=", 43],
  ["CC(C)c1c(OCC(O)C[C@@H](O)CC(=O)O)c(C(c2ccc(F)cc2)c2ccc(F)cc2)cc2ccccc12 (some centres not stated)", "=", 2],
  ["CCC(C)(C)OC(=O)C(c1cc(C)cc(C)c1OCC(O)C[C@@H](O)CC(=O)O)C1CCCCC1 (stereo in doubt; 11r)", "=", 12],
  ["Cc1cc(Cl)cc(CCCOc2ccc(F)cc2)c1OCC(O)C[C@@H](O)CC(=O)O (some centres not stated)", "=", 10],
  ["Cc1cc(Cl)cc(CCCOc2ccc(Cl)cc2)c1OCC(O)C[C@@H](O)CC(=O)O (some centres not stated)", "=", 15],
  ["CC(C)c1c(O)c(C(C)C)c(C(C)C)c(OCC(O)C[C@@H](O)CC(=O)[O-])c1-c1ccc(F)cc1.[Na+] (some centres not stated)", "=", 34],
  ["CCC(C)(C)C(=O)NC(c1cc(C)cc(C)c1OCC(O)C[C@@H](O)CC(=O)O)C1CCCCC1 (stereo in doubt; 11w)", "=", 2],
  ["CC(C)c1c(OCC(O)C[C@@H](O)CC(=O)O)c(-c2ccc(F)cc2)nc2ccccc12 (some centres not stated)", "=", 16],
  ["O=C(O)C[C@H](O)CC(O)COc1c(CCCOc2ccc(F)cc2)cc(Cl)cc1C1CCCC1 (some centres not stated)", "<", 1],
  ["CC(C)c1cc(SC(C)(C)Sc2cc(-c3ccc(F)cc3)c(OCC(O)C[C@@H](O)CC(=O)[O-])c(C(C)C)c2)cc(-c2ccc(F)cc2)c1[O-].[Na+].[Na+] (some centres not stated)", "=", 15],
  ["O=C(O)C[C@H](O)CC(O)COc1c(CCCOc2ccc(F)cc2)cccc1C1CCCC1 (some centres not stated)", "<", 1],
  ["O=C(O)C[C@H](O)CC(O)COc1c(Cl)cc(Cl)cc1C(CCOc1ccc(F)cc1)c1ccc(F)cc1 (some centres not stated)", "=", 4],
  ["Cc1c(OCC(O)C[C@@H](O)CC(=O)O)c(-c2ccc(F)cc2)nc2ccccc12 (some centres not stated)", "=", 1],
  ["CC(C)c1cc(C(C)(C)C)cc(-c2ccc(F)cc2)c1OCC(O)C[C@@H](O)CC(=O)[O-].[Na+] (some centres not stated)", "=", 2],
  ["O=C(O)C[C@H](O)CC(O)COc1c(Cl)cc(Cl)cc1C(=O)C1CCCCC1 (some centres not stated)", "=", 4],
  ["O=C(O)C[C@H](O)CC(O)COc1c(Cl)cc(Cl)cc1C(F)=C1CCCCC1 (some centres not stated)", "=", 9],
  ["Cc1cc(C)c(OCC(O)C[C@@H](O)CC(=O)O)c(CC2CCCCC2)c1 (some centres not stated)", "=", 9],
  ["CC(C)c1cc(-c2ccc(F)cc2)c(OCC(O)C[C@@H](O)CC(=O)[O-])c(C(C)C)c1.[Na+] (some centres not stated)", "=", 300],
  ["O=C(O)C[C@H](O)CC(O)COc1cc(OCc2ccc(F)cc2)c(Cl)cc1Cl (some centres not stated)", "=", 3],
  ["Cc1cc(Cl)cc(CC2CCCCC2)c1OCC(O)C[C@@H](O)CC(=O)O (some centres not stated)", "=", 12],
  ["CC(C)c1cc(SC(C)(C)Sc2cc(-c3ccc(F)cc3)c(OC[C@H](O)C[C@@H](O)CC(=O)[O-])c(C(C)C)c2)cc(-c2ccc(F)cc2)c1OC[C@H](O)C[C@@H](O)CC(=O)[O-].[Na+].[Na+]", "=", 37],
  ["Cc1cc(C)c(OCC(O)C[C@@H](O)CC(=O)O)c(C(c2ccc(F)cc2)C2CCCCC2)c1 (some centres not stated)", "=", 8],
  ["Cc1nc2ccccc2c(-c2ccccc2)c1OCC(O)C[C@@H](O)CC(=O)O (some centres not stated)", "<", 1],
  ["O=C(O)C[C@H](O)CC(O)COc1c(Cl)cc(Cl)cc1CC1CCCCC1 (some centres not stated)", "=", 31],
  ["O=C(O)C[C@H](O)CC(O)COc1c(Cl)cc(Cl)cc1-c1ccccc1 (some centres not stated)", "=", 5],
  ["Cc1cccc(CCCOc2ccc(F)cc2)c1OCC(O)C[C@@H](O)CC(=O)O (some centres not stated)", "=", 3],
  ["CC(C)c1cc(-c2ccccc2)cc(CC2CCCCC2)c1OCC(O)C[C@@H](O)CC(=O)O (some centres not stated)", "=", 2]
]}
